# IC50 values compiled below
target-or-system: T1, human IL-1α (human, UniProt P01583 113-271)
T1 construct: also called IL-1alpha; hIL-1α
T1 sequence (looked up): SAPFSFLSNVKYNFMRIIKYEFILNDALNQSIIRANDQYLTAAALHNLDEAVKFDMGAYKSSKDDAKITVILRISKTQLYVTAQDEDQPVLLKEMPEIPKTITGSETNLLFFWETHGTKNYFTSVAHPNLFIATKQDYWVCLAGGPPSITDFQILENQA
protocol-summary: Table 62 IC50; RBA presumed
measurement-name: IC50 (nM)

[
  {
    "binder": "ABT1-95-30 (other, VK dAb) VL: DIQMTQSPSSLSASVGDRVTITCRASQPIVRNLRWYQQKPGKAPKLLIYSSSYLEPGVPSRFSGSGSGTDFTLTISSLQPEDFATYYCQQSYRWPVTFGQGTKVEIKR",
    "censoring-qualifier": ">",
    "reported-value": 1
  },
  {
    "binder": "ABT1-131 (other, VK dAb) VL: DIQMTQSPSSLSASVGDRVTITCRASQRINGNLRWYQQKPGKAPKLLIYSVSQLQSGVPSRFSGSGSGTDFTLTISSLQPEDFATYYCQQGYDWPPTFGQGTKVETKR",
    "censoring-qualifier": "=",
    "reported-value": 80
  },
  {
    "binder": "ABT1-95-23 (other, VK dAb) VL: DIQMTQSPSSLSASVGDRVTITCRASQPTVRNLRWYQQKPGKAPKLLIYSSSYLEPGVPSRFSGSGSGTDFTLTISSLQPEDFATYYCQQGYRWPVTFGQGTKVEIKR",
    "censoring-qualifier": "=",
    "reported-value": 0.5
  },
  {
    "binder": "ABT1-95 (other, VK dAb) VL: DIQMTQSPSSLSASVGDRVTITCRASQPIHGNLRWYQQKPGKAPKLLIYNISNLQSGVPSRFSGSGSGTDFTLTISSLQPEDFATYYCQQGYRWPVTFGQGTKVEIKR",
    "censoring-qualifier": "=",
    "reported-value": 500
  },
  {
    "binder": "ABT1-141-17 (other, VK dAb) VL: DIQMTQSPSSLSASVGDRVTITCRASQWIQKQLAWYQLKPGKAPKLLIYSSSYLQSGVPSRFSGSGSGTDFTLTISSLQPEDFATYYCQQHLRVPFTFGQGTKVEIKR",
    "censoring-qualifier": "=",
    "reported-value": 30
  },
  {
    "binder": "ABT1-95-145 (other, VK dAb) VL: DIQMTQSPSSLSASVGDHVTITCRASQPIVRNLRWYQQKPGKAPKLLIYSSSYLVPGVPSRFSGSGSGTDFTLTISSLQPEDFATYHCQQGYRWPVTFGQGTKVEIKR",
    "censoring-qualifier": "=",
    "reported-value": 0.8
  },
  {
    "binder": "ABT1-95-146 (other, VK dAb) VL: DIQMTQSPSSLSASVGDRVTITCRASQNIVRNLRWYQQKPGKAPKLLIYSSSYLEPGVPSRFSGSGSGTDFTLTISSLQPEDFATYHCQQGYRWPVTFGQGTKVEIKR",
    "censoring-qualifier": "=",
    "reported-value": 0.8
  },
  {
    "binder": "ABT1-122-18 (other, VK dAb) VL: DIQMTQSPSSLSASVGDRVTITCRASQPIWTELNWYQQKPGKAPKLLVYGSSSLQSGVPSRFSGSGSGTDFTLTISSLQPEDFATYYCQQFAYFPATFGQGTKVEIKR",
    "censoring-qualifier": "=",
    "reported-value": 5
  }
]

Sourced from patent US20090291081A1
